B1: Glucocorticoid receptor, residues 419 to 494; numbered along this chain, P04150 (parent)
chain: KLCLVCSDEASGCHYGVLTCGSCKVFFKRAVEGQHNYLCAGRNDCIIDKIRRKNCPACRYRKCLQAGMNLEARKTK

- Variants of: B1
- EXPERIMENTAL_DETAILS: abundance fitness (aPCA) (normalised: wild type 0, dead -1); higher = more abundant; growth selection in yeast, the domain comes from the species named
- CONDITION_SET: Homo sapiens
Using abundance fitness as the sorting value, the categories are lo = under -0.06, med = from -0.06 up to -0.03, hi = -0.03 and over

Inquiry: Entry "D44R" belongs to which category?
Reply text: lo

Inquiry: Entry "R29W" belongs to which category?
Reply text: lo

Inquiry: Entry "T19M" belongs to which category?
Reply text: lo

Inquiry: Entry "N69D" belongs to which category?
Reply text: med

Inquiry: Entry "S11L" belongs to which category?
Reply text: hi

Inquiry: Entry "R52V" belongs to which category?
Reply text: med

Inquiry: Entry "T75E" belongs to which category?
Reply text: hi

Inquiry: Entry "V17I" belongs to which category?
Reply text: hi

Inquiry: Entry "T19I" belongs to which category?
Reply text: med

Inquiry: Entry "C13W" belongs to which category?
Reply text: med
